Assay: protein stability index of a GFP-peptide fusion (GPS, HEK-293T) (PSI 1-6); higher = more stable;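 also: 24-mer peptide tiles fused after GFP, lentivirally expressed, FACS-sorted into six equal bins by GFP/DsRed ratio, decoded by Illumina sequencing, PSI is the read-weighted mean bin number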
Details: treatment: MLN4924 1 uM, 8 h; c terminus: a fixed tail appended
QUANTITY_KIND: protein stability index
// no unit string in output, number only

Look up protein stability index for this sequence: RSLQRGCRALRDPALDSLAYEYER [TRADD]
3.47

Look up protein stability index for this sequence: LQNEVRQLTEKLARVNENLARKIA [SSNA1]
2.2

Look up protein stability index for this sequence: GDDSDLSEGFESDSSHDSARASEG [SMG5]
5.48

Look up protein stability index for this sequence: DVPTIQEKVNEGKYRSYEEFKADA [ZMYND11]
5.26

Look up protein stability index for this sequence: YAPSCAKCKKKITGEIMHALKMTW [PDLIM7]
2.44

Look up protein stability index for this sequence: LRRWLRANLAASGGYAIAVVLLQG [TSPAN10]
2.35

Look up protein stability index for this sequence: ECFMCSDCGLNLKQRGYFFLDERL [PDLIM4]
2.08

---

Assay: protein stability index of a GFP-peptide fusion (GPS, HEK-293T) (PSI 1-6); higher = more stable
Settings: treatment: DMSO; c terminus: a fixed tail appended
Parameter threshold = 4. Response is class 1 when protein stability index meets or exceeds it, else class 0.

Determine whether this sequence has protein stability index no lower than 4: APPPADSAPQQNGQPLRPLVPDAS [PDLIM7]
class 1

Determine whether this sequence has protein stability index no lower than 4: GAEQPPDLHCVLVTNPHSSQWKDP [GADD45A]
class 1

Determine whether this sequence has protein stability index no lower than 4: KHSNSPPLVTPPQSPVSPQPPAIT [SMTNL2]
class 1

Determine whether this sequence has protein stability index no lower than 4: LAARRQWRDECLMRLAKLKSQVQP [CRYL1]
class 0

Determine whether this sequence has protein stability index no lower than 4: SPIKPGDIKRGIPNYEFKLGKITF [UFD1]
class 0

Determine whether this sequence has protein stability index no lower than 4: WHPAENIIAIAATNNLYIFQDKVN [PPP2R2C]
class 0

---

Consider the following sequences; for each one, report its protein stability index.
Test: protein stability index of a GFP-peptide fusion (GPS, HEK-293T) (PSI 1-6); higher = more stable
Conditions: treatment: MLN4924 1 uM, 8 h; c terminus: a fixed tail appended
// no unit string in output, number only

Look up protein stability index for this sequence: YAFANVFHGWKYMFGLVIPLGVLQ [SLC2A12]
3.11

Look up protein stability index for this sequence: SMNFSMMSTNTVGLGLPMSRSQNT [CLINT1]
3.44

Look up protein stability index for this sequence: PVKKQLQGASWELQSLRPHDEDIK [ZNF396]
4.72

Look up protein stability index for this sequence: KLLHIYYQNSIDDRLLVERIFAQY [PDS5B]
3.39

Look up protein stability index for this sequence: FVMFLCLADYLVPILAPRIFGSNK [ARL6IP1]
3.17

Look up protein stability index for this sequence: NSEDIFLLLCLKVDNHFNLLTTSP [TRIM43]
2.31

Look up protein stability index for this sequence: GRLGRWLRSTRFSGSLDRLRETRV [PCDHGC5]
3.3

Look up protein stability index for this sequence: GLGNIWRFPYLCQKNGGGAYLVPY [SLC6A17]
2.54

Look up protein stability index for this sequence: YEPLLSRVQAALVWERPARSALWC [RETREG3]
2.12

Look up protein stability index for this sequence: DKWVNDPHRMDRRLLALIYLAHAS [GOLPH3]
2.1

Look up protein stability index for this sequence: LGSDYEQPLEVKNNSNLQRMGSSE [CDC25A]
4.94

Look up protein stability index for this sequence: EMEEELRYAPLSFRNPMMSKLRNY [VTI1B]
3.01

Look up protein stability index for this sequence: EDEDEDEDEDEDKEEEEEDCSEEY [TAF7L]
5.58
